# experimental_target: T1, human CD1a expressed on cells (human, UniProt P06126 17-327; P61769 21-119)
# T1 construct: also called HEK - CD1a; C1R - CD1a
# test: flow cytometry, HEK-293 cells, 1 µg/ml antibody
outcome_measure: Fluorescence Intensity Geomean (normalized to background) (fold over background)
Provide only the numeric value, understood in fold over background.

Some binders with known Fluorescence Intensity Geomean (normalized to background) results, for comparison:
binder	output_unit	numeric_readout
116 (VR12117) (antibody, V domains shown, also called OX116) VH: QSVEESGGRLVTPGTPLTLTCTVSGFSLSNYAMSWVRQAPGKGLEWIGIIYTTGFTYYASWVKGRFTISKTSTTVDLKITSPTTEDTATYFCARGLATYVSPPTRLDLWGQGTLVTVSS VL: AQVLTQTPSPVSAAVGGTVTINCQASQSIYNSKNLAWYQQKPGQPPKLLIYSASTLASGVPSRFKGSGSGTQFTLTISDLECDDAATYYCQGEFSCSSVDCATFGGGTEVVVK	fold over background	48.2
16 (VR11834) (antibody, V domains shown, also called OX16; antibody 16) VH: EVQLVESGGGLVKPGGSLKLSCAASGFTFSNYAMSWVRQTPEKRLEWVAAINSNGGSAYYPDTVKDRFTISRDNAKNTLYLQMSSLRSEDTALYYCARRFYYDYGWFAYWGQGTLVTVSS VL: DIVLTQSPASLSASVGETVTITCRASENIDSYLAWYQQKQGKSPQLLVYAATLLADGVPSRFSGSGSGTQYSLKINSLQSEDVARYYCQHYYSSPWTFGGGTKLEIK	fold over background	19.6

Data request: I am curious: what Fluorescence Intensity Geomean (normalized to background) value has been reported for 110 (VR12112) (antibody, V domains shown, also called OX110; antibody 110) VH: QSVEESGGRLVTPGTPLTLTCTVSGFSLSSYAMIWVRQAPGKGLEWIGIINSSDNTHYATWAKGRFTISKTSTTVDLKITSPTTEDTATYFCARDPYDYGYGWYFDLWGPGTLVTVSS VL: AQVLTQTPSPVSAAVGGTVTINCQASQSVFNNKNLAWYQQKPGQPPKLLIYKASTLASGVSSRFKGSGSGTQFALTISGVQCDDAATYYCQGEFSCSSTDCVTFGGGTEVVVK ?
Data returned: 49.2

Data request: // Fluorescence Intensity Geomean (normalized to background) lookup, key: 111 (VR12113) (antibody, V domains shown, also called OX111) VH: QSVEESGGRLVTPGTPLTLTCTASGFSLSTYAMSWVRQAPGKGLEWIGIISSSGSTYYASWAKGRFTISKTSTTVDLKITSPTTEDTATYFCARETWYWLDLWGQGTLVTVSS VL: AVEMTQTPASVSAAVGGTVTINCQASEDIYSNLAWYQQKPGQPPKLLIYGASTLASGVPSRFKGSGSGTEYTLTISGVQCDDAATYYCQCAYDSSSYGTPFGGGTEVVVK
Data returned: 42
